system: Trypanosoma cruzi; test: Trypanocidal activity against Trypanosoma cruzi MHOM/Pe/2011/Arequipa DTU 5 epimastigotes after 48 hrs by resazurin dye based assay; assay type: functional, organism-based; settings: MHOM/Pe/2011/Arequipa DTU 5, 48 h
METRIC NAME: IC50 (µM)
# value in µM; strip the unit string

Previously resolved entries follow.
[[record]]
entry_smiles = "O=C(CCN1CCN(c2ccc(F)cc2)CC1)c1ccc(F)c(Br)c1"
reported_value = 38.8

[[record]]
entry_smiles = "O=C(CCN1CCN(c2ccc(F)cc2)CC1)c1ccc(Br)cc1"
reported_value = 22.5

[[record]]
entry_smiles = "COc1ccc(N2CCN(CCC(=O)c3ccc(F)cc3)CC2)cc1"
reported_value = 24.5


Prompt line: I'd like to know its IC50. The compound in question is `O=C(CCN1CCN(c2ccc(Cl)cc2)CC1)c1ccc(F)c(F)c1`
Response line: 15.4

Prompt line: I'd like to know its IC50. The compound in question is `O=C(CCN1CCN(c2ccc(Cl)cc2)CC1)c1ccc(OC(F)(F)F)cc1`
Response line: 42.2

Prompt line: I'd like to know its IC50. The compound in question is `O=C(CCN1CCN(c2ccc([N+](=O)[O-])cc2)CC1)c1ccc(Cl)c(F)c1`
Response line: 23.8

Prompt line: I'd like to know its IC50. The compound in question is `COc1ccc(C(=O)CCN2CCN(Cc3cccc(F)c3)CC2)cc1OC`
Response line: 49

Prompt line: I'd like to know its IC50. The compound in question is `O=C(CCN1CCN(c2ccc(Cl)cc2)CC1)c1ccc(Cl)c(F)c1`
Response line: 42

Prompt line: I'd like to know its IC50. The compound in question is `O=C(CCN1CCN(c2ccc(Cl)cc2)CC1)c1ccc(C(F)(F)F)cc1`
Response line: 52.7

Prompt line: I'd like to know its IC50. The compound in question is `Cc1ccc(C(=O)CCN2CCN(c3ccc([N+](=O)[O-])cc3)CC2)cc1`
Response line: 28.4

----------
test: Selectivity index, ratio of IC50 for African green monkey Vero cells to IC50 for Trypanosoma cruzi IRHOD/CO/2008/SN3 DTU 1 trypamastigotes derived from infected Balb/c albino mouse; format: toxicity; conditions: read-out: Ratio IC50
In plain terms, low selectivity ratio, meaning strictly below 80, gives fulfilled, and everything else gives not fulfilled.

[[record]]
entry_smiles = "Cc1ccc(C(=O)CCN2CCN(c3ccc([N+](=O)[O-])cc3)CC2)cc1"
group_label = "fulfilled"

[[record]]
entry_smiles = "O=C(CCN1CCN(c2ccc(F)cc2)CC1)c1ccc(F)c(F)c1"
group_label = "fulfilled"

[[record]]
entry_smiles = "COc1ccc(C(=O)CCN2CCN(c3ccc([N+](=O)[O-])cc3)CC2)cc1"
group_label = "not fulfilled"

[[record]]
entry_smiles = "COc1ccc(C(=O)CCN2CCN(c3ccc(F)cc3)CC2)cc1"
group_label = "fulfilled"


Prompt line: Does `COc1ccc(C(=O)CCN2CCN(c3ccc(Cl)cc3)CC2)cc1` have selectivity ratio strictly under 80?
Response line: fulfilled

----------
IC50 reference
tested on: Trypanosoma cruzi; assay: Trypanocidal activity against Trypanosoma cruzi MHOM/Pe/2011/Arequipa DTU 5 epimastigotes after 48 hrs by resazurin dye based assay; type: functional, organism-based; details: MHOM/Pe/2011/Arequipa DTU 5, 48 h

Previously resolved entries follow.
[[record]]
entry_smiles = "O=C(CCN1CCN(c2ccc([N+](=O)[O-])cc2)CC1)c1ccc(F)c(Br)c1"
metric_name = "IC50"
reported_value = "36.5 µM"

[[record]]
entry_smiles = "O=C(CCN1CCN(c2ccc(Cl)cc2)CC1)c1ccc(Br)cc1"
metric_name = "IC50"
reported_value = "42.5 µM"


Proceed to the following item.
Prompt line: I'd like to know its IC50. The compound in question is `O=C(CCN1CCN(c2ccc(Cl)cc2)CC1)c1ccc(F)c(Cl)c1`
Response line: 45.5 µM
